experiment: Intrinsic clearance in human liver microsomes; format: ADME, Microsome
Consider the following compounds and their measured microsomal CLint readings.
Field format: number, assumed µL/min/mg, no unit text.

Consider the worked cases shown below.
*Q* Item under review: `Cc1c(Cc2ccc(F)c(C(=O)N3CCN(C(=O)[C@@]4(C)CCN4)CC3)c2)n[nH]c(=O)c1C` . Reported microsomal CLint?
*A* 3

*Q* Item under review: CCC1(C(=O)N2CCN(C(=O)c3cc(Cc4n[nH]c(=O)c(C)c4C)ccc3F)CC2)CCCN1 (stereo not given) . Reported microsomal CLint?
*A* 13

Turning to the following compound.
*Q* Item under review: `CNC(C)(C)C(=O)N1CCN(C(=O)c2cc(Cc3n[nH]c(=O)c(C)c3C)ccc2F)CC1` . Reported microsomal CLint?
*A* 10

----------
Listed here: compounds with reported IC50 for Poly [ADP-ribose] polymerase 1 (Homo sapiens, UniProt P09874).
Field format: number, assumed nM, no unit text.

Consider the worked cases shown below.
*Q* Item under review: `Cc1c(Cc2ccc(F)c(C(=O)N3CCN(C(=O)[C@@]4(C)CCCN4)CC3)c2)n[nH]c(=O)c1C` . Reported IC50?
*A* 1.3

*Q* Item under review: `Cc1c(Cc2ccc(F)c(C(=O)N3CCN(C(=O)[C@H]4CCCN4)CC3)c2)n[nH]c(=O)c1C` . Reported IC50?
*A* 2.7

---
*Q* Item under review: Cc1c(Cc2ccc(F)c(C(=O)N3CCN(C(=O)C4(Cc5ccccc5)CCCN4)CC3)c2)n[nH]c(=O)c1C (configuration not stated) . Reported IC50?
*A* 3.3

*Q* Item under review: `Cc1c(Cc2ccc(F)c(C(=O)N3CCN(C(=O)C4(N5CCCC5)CCCC4)CC3)c2)n[nH]c(=O)c1C` . Reported IC50?
*A* 2.7

*Q* Item under review: `Cc1c(Cc2ccc(F)c(C(=O)N3CCN(C(=O)C4(NCC5CC5)CCCCC4)CC3)c2)n[nH]c(=O)c1C` . Reported IC50?
*A* 3.5

*Q* Item under review: `Cc1c(Cc2ccc(F)c(C(=O)N3CCN(C(=O)[C@@]4(Cc5ccc(F)cc5)CCCN4)CC3)c2)n[nH]c(=O)c1C` . Reported IC50?
*A* 4.2

*Q* Item under review: `O=C(c1cc(Cc2c[nH]c(=O)c3cc(Cl)c(Cl)n23)ccc1F)N1CCC2(CCCN2)CC1` . Reported IC50?
*A* 2.5

----------
Consider the following molecules and their measured clearance readings.
assay: Clearance in rat; assay type: ADME, organism-based; details: in vivo
Field format: number, assumed mL/min/kg, no unit text.

*Q* Item under review: `Cc1c(Cc2ccc(F)c(C(=O)N3CCC4(CCCN4)CC3)c2)n[nH]c(=O)c1C` . Reported clearance?
*A* 57

*Q* Item under review: `O=C(c1cc(Cc2c[nH]c(=O)c3cc(Cl)c(Cl)n23)ccc1F)N1CCC2(CCCN2)CC1` . Reported clearance?
*A* 130

*Q* Item under review: Cc1c(Cc2ccc(F)c(C(=O)N3CCN(C(=O)C4(C)CCCN4)CC3)c2)n[nH]c(=O)c1C (stereo not given) . Reported clearance?
*A* 38

Turning to the following molecule.
*Q* Item under review: `CNC(C)(C)C(=O)N1CCN(C(=O)c2cc(Cc3n[nH]c(=O)c(C)c3C)ccc2F)CC1` . Reported clearance?
*A* 64
